# Tested on: HCV replicon 2B
# protocolNotes: microbe, parasite or virus in culture
# Assay type: cell-based, Hepatitis C virus (HCV)
# conditionsUsed: read-out: 2B IC50; HCV replicon 2B; Replicon Assay A
pIC50: −log10 of the molar value.
Listed here: items and their measured pIC50.
observedProperty: pIC50

[[record]]
molecule = "CCc1ccc(C2Oc3cc(-c4cnc([C@@H]5CCCN5C(=O)[C@@H](NC(=O)OC)C(C)C)[nH]4)ccc3-c3c(F)c4cc(-c5cnc([C@@H]6CCCN6C(=O)C(NC(=O)OC)C6C[C@@H](C)O[C@@H](C)C6)[nH]5)ccc4n32)s1 (single isomer, unassigned) [Compound 635]"
numericreadout = 10.65

[[record]]
molecule = "COC(=O)N[C@H](C(=O)N1CCC[C@H]1c1ncc(-c2cc(C)c3c(c2)OC(c2ccc(C4CC4)s2)n2c-3cc3cc(-c4cnc([C@@H]5CCCN5C(=O)[C@@H](NC(=O)OC)C(C)C)[nH]4)ccc32)[nH]1)C(C)C (single isomer, unassigned) [Compound 752]"
numericreadout = 9.22

[[record]]
molecule = "COC(=O)NC(C(=O)N1CCC[C@H]1c1ncc(-c2ccc3c(c2)cc2n3C(c3ccc(C4CC4)s3)Oc3cc(-c4cnc([C@@H]5CCCN5C(=O)[C@@H](NC(=O)OC)C(C)C)[nH]4)cc(F)c3-2)[nH]1)C1CC(C)(C)OC(C)(C)C1 (single isomer, unassigned) [Compound 421]"
numericreadout = 10.74

[[record]]
molecule = "CCc1ccc(C2Oc3cc(-c4cnc([C@@H]5CCCN5C(=O)[C@@H](NC(=O)OC)C(C)C)[nH]4)cc(C)c3-c3cc4cc(-c5cnc([C@@H]6CCCN6C(=O)C(NC(=O)OC)C6C[C@@H](C)O[C@H](C)C6)[nH]5)ccc4n32)s1 (single isomer, unassigned) [Compound 545]"
numericreadout = 11.19

[[record]]
molecule = "COC(=O)N[C@H](C(=O)N1CCC[C@H]1c1ncc(-c2cc(F)c3c(c2)OC(c2ccc(C4CCCCC4)s2)n2c-3cc3cc(-c4cnc([C@@H]5CCCN5C(=O)[C@@H](NC(=O)OC)C(C)C)[nH]4)ccc32)[nH]1)C(C)C (single isomer, unassigned) [Compound 530]"
numericreadout = 9.31

[[record]]
molecule = "COC(=O)N[C@H](C(=O)N1CCC[C@H]1c1ncc(-c2ccc3c(c2)OC(c2cc4ccccc4s2)n2c-3cc3cc(-c4cnc([C@@H]5C[C@@H](F)CN5C(=O)[C@@H](NC(=O)OC)C5CCOCC5)[nH]4)ccc32)[nH]1)C(C)C (single isomer, unassigned) [Compound 628]"
numericreadout = 9.04

[[record]]
molecule = "CCc1ccc(C2Oc3cc(-c4cnc([C@@H]5CCCN5C(=O)[C@@H](NC(=O)OC)C(C)C)[nH]4)ccc3-c3c(F)c4cc(-c5cnc([C@@H]6CCCN6C(=O)C(NC(=O)OC)C6C[C@@H](C)O[C@@H](C)C6)[nH]5)ccc4n32)s1 (single isomer, unassigned) [Compound 634]"
numericreadout = 10.57

[[record]]
molecule = "COC(=O)N[C@H](C(=O)N1CCC[C@H]1c1ncc(-c2cc(F)c3c(c2)OC(c2ccc(CC(C)C)s2)n2c-3cc3cc(-c4cnc([C@@H]5CCCN5C(=O)[C@@H](NC(=O)OC)C(C)C)[nH]4)ccc32)[nH]1)C(C)C (single isomer, unassigned) [Compound 521]"
numericreadout = 8.46

[[record]]
molecule = "COC(=O)NC(C(=O)N1[C@@H]2C[C@@H]2C[C@H]1c1ncc(-c2ccc3c(c2)c(F)c2n3C(c3ccc(C4CC4)s3)Oc3cc(-c4cnc([C@@H]5CCCN5C(=O)[C@@H](NC(=O)OC)C(C)C)[nH]4)ccc3-2)[nH]1)C1C[C@@H](C)O[C@@H](C)C1 (single isomer, unassigned) [Compound 643]"
numericreadout = 9.49

[[record]]
molecule = "COC(=O)N[C@H](C(=O)N1CCC[C@H]1c1nc(-c2ccc3c(c2)OC(c2ccc(C)s2)n2c-3cc3cc(-c4c[nH]c([C@@H]5NCCN5C(=O)[C@@H](NC(=O)OC)C(C)C)n4)ccc32)c[nH]1)C(C)C (single isomer, unassigned) [Compound 701]"
numericreadout = 9.82

[[record]]
molecule = "COC(=O)NC(C(=O)N1CCC[C@H]1c1ncc(-c2ccc3c(c2)cc2n3C(c3cc4ccccc4s3)Oc3cc(-c4cnc([C@@H]5CCCN5C(=O)[C@@H](NC(=O)OC)C(C)C)[nH]4)cc(F)c3-2)[nH]1)C1C[C@@H](C)O[C@@H](C)C1 (single isomer, unassigned) [Compound 642]"
numericreadout = 9.70

[[record]]
molecule = "COC(=O)N[C@H](C(=O)N1CCC[C@H]1c1ncc(-c2ccc3c(c2)OC(c2ccc(C4CC4)s2)n2c-3c(F)c3cc(-c4cnc([C@@H]5C[C@H]6C[C@H]6N5C(=O)[C@@H](NC(=O)OC)C(C)C)[nH]4)ccc32)[nH]1)C(C)C (single isomer, unassigned) [Compound 611]"
numericreadout = 9.74

[[record]]
molecule = "COC(=O)N[C@H](C(=O)N1CCC[C@H]1c1ncc(-c2cc(F)c3c(c2)OC(c2cc4c(s2)CCC4)n2c-3cc3cc(-c4cnc([C@@H]5C[C@H]6C[C@H]6N5C(=O)[C@@H](NC(=O)OC)C5C[C@@H](C)O[C@@H](C)C5)[nH]4)ccc32)[nH]1)C(C)C (single isomer, unassigned) [Compound 551]"
numericreadout = 10.07

[[record]]
molecule = "COC(=O)NC(C(=O)N1[C@@H]2C[C@@H]2C[C@H]1c1ncc(-c2ccc3c(c2)cc2n3C(c3ccc(C(F)F)s3)Oc3cc(-c4cnc([C@@H]5CCCN5C(=O)[C@@H](NC(=O)OC)C(C)C)[nH]4)cc(F)c3-2)[nH]1)C1CCOC(C)(C)C1 (single isomer, unassigned) [Compound 414]"
numericreadout = 9.34

